- system name: T1, human interleukin 13 receptor alpha 2 (IL-13Rα2), biotinylated (human, UniProt Q14627 27-343, limits assumed, biotinylated (site not stated))
- T1 construct: The methods give construct limits only for IL-13Rα1 and IL-4Rα1; For IL-13Rα2 they say only that the biotinylated receptor was captured on the SA chip; also called IL13RA2; CD213a2
- T1 sequence (looked up): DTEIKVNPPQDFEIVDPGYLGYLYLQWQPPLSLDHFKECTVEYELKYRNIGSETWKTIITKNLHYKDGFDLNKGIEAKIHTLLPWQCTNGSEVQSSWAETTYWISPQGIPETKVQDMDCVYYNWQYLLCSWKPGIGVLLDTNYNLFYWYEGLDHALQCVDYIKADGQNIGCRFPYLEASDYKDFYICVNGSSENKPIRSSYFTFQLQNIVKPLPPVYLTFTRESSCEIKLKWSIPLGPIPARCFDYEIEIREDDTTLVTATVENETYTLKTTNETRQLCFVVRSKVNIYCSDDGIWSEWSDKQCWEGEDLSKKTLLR
- protocol summary: SPR (Biacore T100), biotinylated receptor on SA chip, 1:1 kinetic fit
observation type: Kd (pM)
Reply numerically in pM, unit not repeated.

Examples from the recorded data:
INSERT INTO results (binder, observation_type, units, assay_value) VALUES
  ('C2 (ligand, also called IL-13 variant C2 (L10D, R11I, V18I, R86K, D87K, K89R, R108K)) cytokine: PGPVPPSTADIELIEELINITQNQKAPLCNGSMVWSINLTAGMYCAALESLINVSGCSAIEKTQRMLSGFCPHKVSAGQFSSLHVKKTRIEVAQFVKDLLLHLKKLFKEGQFN', 'Kd', 'pM', 25),
  ('C12 (ligand, also called IL-13 variant C12 (L10H, R86M, T88S, K89R, L101N, K104R, K105A, R108K)) cytokine: PGPVPPSTAHRELIEELVNITQNQKAPLCNGSMVWSINLTAGMYCAALESLINVSGCSAIEKTQRMLSGFCPHKVSAGQFSSLHVMDSRIEVAQFVKDLLNHLRALFKEGQFN', 'Kd', 'pM', 53),
  ('C3 (ligand, also called IL-13 variant C3 (L10A, R86T, D87G, T88K, K89R, L101N, K104R, K105A, R108K)) cytokine: PGPVPPSTAARELIEELVNITQNQKAPLCNGSMVWSINLTAGMYCAALESLINVSGCSAIEKTQRMLSGFCPHKVSAGQFSSLHVTGKRIEVAQFVKDLLNHLRALFKEGQFN', 'Kd', 'pM', 379);

The recorded Kd for entry B2 (ligand, also called IL-13 variant B2 (V18I, R86T, D87G, T88S, L101Y, K104R, K105A)) cytokine: PGPVPPSTALRELIEELINITQNQKAPLCNGSMVWSINLTAGMYCAALESLINVSGCSAIEKTQRMLSGFCPHKVSAGQFSSLHVTGSKIEVAQFVKDLLYHLRALFREGQFN equals 1500

The recorded Kd for entry IL-13 variant C4 (L10V, K89R, L101N, K105E, R108T) (ligand, the first is used here; also called polypeptide C4) PGPVPPSTAVRELIEELVNITQNQKAPLCNGSMVWSINLTAGMYCAALESLINVSGCSAIEKTQRMLSGFCPHKVSAGQFSSLHVRDTRIEVAQFVKDLLNHLKELFTEGQFNHHHHHH equals 393

The recorded Kd for entry IL-13 variant D7 (IL-13Rα2-selective IL-13 superkine; L10A, V18F, R86K, D87K, K89R, L101I, K104R, R108K) (ligand, the first is used here; also called polypeptide D7) PGPVPPSTAARELIEELFNITQNQKAPLCNGSMVWSINLTAGMYCAALESLINVSGCSAIEKTKRMLSGFCPHKVSAGQFPSLHVKKTRIEVAQFVKDLLIHLRKLFKEGQFNHHHHHH equals 3
